Below is a list of entries, each paired with its recorded IC50 value.
biological target: α-Glucosidase (AGS) (Saccharomyces cerevisiae, UniProt P53341); experiment: AGS (α-glucosidase) inhibitory assay; format: biochemical; settings: in vitro; means ± SD; read-out: IC50 α-Glucosidase
Sequence (P53341 whole entry): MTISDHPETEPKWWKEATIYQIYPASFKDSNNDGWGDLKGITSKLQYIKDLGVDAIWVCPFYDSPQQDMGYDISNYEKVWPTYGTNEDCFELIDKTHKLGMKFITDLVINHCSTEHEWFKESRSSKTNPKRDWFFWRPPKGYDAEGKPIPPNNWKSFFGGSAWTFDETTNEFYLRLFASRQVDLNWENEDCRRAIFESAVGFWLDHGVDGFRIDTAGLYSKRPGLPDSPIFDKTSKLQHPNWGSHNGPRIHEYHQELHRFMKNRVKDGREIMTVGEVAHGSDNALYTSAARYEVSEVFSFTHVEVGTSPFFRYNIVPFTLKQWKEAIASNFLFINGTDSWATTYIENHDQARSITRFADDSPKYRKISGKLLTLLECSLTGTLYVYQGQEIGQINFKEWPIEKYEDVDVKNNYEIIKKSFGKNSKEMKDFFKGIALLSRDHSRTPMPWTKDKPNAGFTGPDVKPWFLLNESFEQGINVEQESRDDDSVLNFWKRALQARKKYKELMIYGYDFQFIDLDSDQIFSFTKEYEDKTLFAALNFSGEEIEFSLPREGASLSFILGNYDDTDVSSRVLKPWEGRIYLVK
Numbers only; they are read as µM.

>  <molecule>
C=C(C)[C@@H]1CC[C@@H]2[C@]3(CC[C@]4(C)[C@@H]([C@H](C)CC/C=C(/C)C(=O)O)CC[C@@]24C)C[C@]13CCC(=O)OC [Compound 4]

>  <IC50 [µM]>
14.1

$$$$
>  <molecule>
C=C(C)[C@@H]1CC[C@@H]2[C@]3(CC[C@]4(C)C(=O)CC[C@@]24C)C[C@]13CCC(=O)OC [Compound 5, schiglausin L]

>  <IC50 [µM]>
42.9

$$$$

# input for lookup
Which value of IC50 has been reported for CC1=CCC(C(C)C2CCC3(C)C4CCC5C(C)(C)OC(=O)C=CC56CC46CCC23C)OC1=O (stereo not drawn) [Compound 3, schisanlactone B] in the records? 29.5

----------
biological target: α-Glucosidase (AGS) (Saccharomyces cerevisiae); assay: AGS (α-glucosidase) inhibitory assay; format: biochemical
measuredAttribute: pIC50
Here pIC50 is given on a logarithmic scale as minus log10 of the concentration in mol/L.

Record CC(=O)OC1CC2=C(CCC3C(=C2)C=CC(=O)OC3(C)C)C2(C)CCC(C(C)C3CC=C(C)C(=O)O3)C12C (stereo not shown) [Compound 1, Sphaerandralide A] : what is its pIC50 with α-Glucosidase (AGS) (Saccharomyces cerevisiae)? 4.21

----------
For reference, IC50 measured on bacterial β-glucuronidase (BGUS) (Escherichia coli):

Worked set:
>  <compound>
C=C(C)[C@@H]1CC[C@@H]2[C@]3(CC[C@]4(C)[C@@H]([C@H](C)CC/C=C(/C)C(=O)O)CC[C@@]24C)C[C@]13CCC(=O)OC [Compound 4]

>  <measuredAttribute>
IC50

>  <observedValue>
155 µM

$$$$
>  <compound>
CC1=CCC(C(C)C2CCC3(C)C4CCC5C(C)(C)OC(=O)C=CC56CC46CCC23C)OC1=O (stereo not drawn) [Compound 3, schisanlactone B]

>  <measuredAttribute>
IC50

>  <observedValue>
14.7 µM

$$$$

# input for lookup
Which value of IC50 has been reported for O=C(O)[C@@H](O)[C@H]1OC(=O)[C@H](O)[C@H]1O [DSL, D-Saccharic 1,4-lactone, reference compound] in the records? 56.9 µM

----------
biological target: UniProt P53341; test: Inhibition kinetics against AGS (Lineweaver–Burk plots); assay type: biochemical; settings: Lineweaver–Burk plots

>  <molecule>
CC1=CCC(C(C)C2CCC3(C)C4CCC5C(C)(C)OC(=O)C=CC56CC46CCC23C)OC1=O (stereo not shown)

>  <system>
UniProt P53341

>  <mode of inhibition against AGS>
mixed-type inhibitors

$$$$
>  <molecule>
CC(=O)OC1CC2=C(CCC3C(=C2)C=CC(=O)OC3(C)C)C2(C)CCC(C(C)C3CC=C(C)C(=O)O3)C12C (stereo not shown) [Compound 1, Sphaerandralide A]

>  <system>
UniProt P53341

>  <mode of inhibition against AGS>
mixed-type inhibitors

$$$$

----------
For reference, Ki measured on α-Glucosidase (AGS) (Saccharomyces cerevisiae):
Numbers only; they are read as µM.

Worked set:
>  <compound>
CC1=CCC(C(C)C2CCC3(C)C4CCC5C(C)(C)OC(=O)C=CC56CC46CCC23C)OC1=O (stereo not drawn)

>  <Ki / µM>
10.5

$$$$
>  <compound>
CC(=O)OC1CC2=C(CCC3C(=C2)C=CC(=O)OC3(C)C)C2(C)CCC(C(C)C3CC=C(C)C(=O)O3)C12C (stereo not drawn) [Compound 1, Sphaerandralide A]

>  <Ki / µM>
35.8

$$$$

# input for lookup
Which value of Ki has been reported for C=C(C)[C@@H]1CC[C@@H]2[C@]3(CC[C@]4(C)[C@@H]([C@H](C)CC/C=C(/C)C(=O)O)CC[C@@]24C)C[C@]13CCC(=O)OC in the records? 7.97
